Reference source for all entries: ChEMBL document CHEMBL1649272

experiment: Renal clearance in patient with severe burns at 1 g, iv; format: ADME, organism-based, Kidney; conditions: human, in vivo, read-out: CL_renal
experimental endpoint: CL renal

Query string: Fill in the blank: the reported CL renal of CC(=O)OCC1=C(C(=O)O)N2C(=O)[C@@H](NC(=O)Cc3cccs3)[C@H]2SC1 [CEPHALOTHIN] is ____.
Result string: 148 mL/min

###

tested on: Homo sapiens; assay: AUC (0 to infinity) in healthy human at 1 g, iv; assay type: ADME, organism-based, Plasma; parameters: dose 1 g, time infinity, route intravenous; conditions: in vivo
experimental endpoint: AUC (ng·h/mL)
Give bare numbers, in ng·h/mL.

Query string: What does the data say about its AUC? Entry: CC(=O)OCC1=C(C(=O)O)N2C(=O)[C@@H](NC(=O)Cc3cccs3)[C@H]2SC1
Result string: 9890
